Cited source for all entries: patent US10266527B2

tested on: S. aureus ATCC 29213; assay: MBC determination; assay type: cell-based; conditions: Table 5 analogs; triplicate experiments; N/O = not observed at concentrations tested (512-0.25 μg/mL)
measurement label: S. aureus (MBC)

Challenge: I'd like to know its S. aureus (MBC). The compound in question is CC1=C(C)CC(C(=O)Nc2nc(-c3ccc(C)cc3)c(C)s2)C(C(=O)O)C1 (centres unmarked)
Response given: N/O

Challenge: I'd like to know its S. aureus (MBC). The compound in question is O=C(NCCN1CCNCC1)c1c(O)c2ccccc2[nH]c1=O
Response given: N/O

Challenge: I'd like to know its S. aureus (MBC). The compound in question is CC(C)CCNC(=O)c1c(O)n2c3c(cccc3c1=O)CCC2
Response given: N/O

Challenge: I'd like to know its S. aureus (MBC). The compound in question is C[C@@H]1CC[C@@H](C)[C@H](C(=O)Nc2nc(-c3ccc(Cl)cc3Cl)cs2)C1C(=O)O (some centres unmarked)
Response given: N/O
